- Cond: in water, 298.15 K
Measured property: solubility (mole fraction)
// print number alone

GET /value?item= CC[n+]1ccccc1.F[P-](F)(F)(F)(F)F &field=solubility (mole fraction) returns 0.00105

----------
- Cond: in ethanol, 323.15 K
Measured property: solubility (mole fraction)
Lab note: jot the number down without any unit.

Per the records, this molecule ( CC[n+]1ccccc1.F[P-](F)(F)(F)(F)F ) has solubility (mole fraction) equal to 0.0015

----------
- Cond: in ethanol, 278.15 K
Measured property: solubility (mole fraction)
Could you respond with only the numeric value?

// sample CC[n+]1ccccc1.F[P-](F)(F)(F)(F)F , its solubility (mole fraction) was 8.4e-05

----------
- Cond: in water, 318.15 K
Measured property: solubility (mole fraction)
In your answer, state the number alone without any accompanying words.

Record CC[n+]1ccccc1.F[P-](F)(F)(F)(F)F , field solubility (mole fraction): 0.00216

----------
- Cond: in water, 343.15 K
Measured property: solubility (mole fraction)
Respond using a number only.

Looking up CC[n+]1ccccc1.F[P-](F)(F)(F)(F)F , I see its solubility (mole fraction) listed as 0.00535

----------
- Cond: in water, 338.15 K
Measured property: solubility (mole fraction)
Just the number.

// field: solubility (mole fraction); key: CC[n+]1ccccc1.F[P-](F)(F)(F)(F)F ; value = 0.00454

----------
- Cond: in water, 283.15 K
Measured property: solubility (mole fraction)
// print number alone

Data point: CC[n+]1ccccc1.F[P-](F)(F)(F)(F)F ; solubility (mole fraction) = 0.000581

----------
- Cond: in ethanol, 293.15 K
Measured property: solubility (mole fraction)
Answer using only a numeral; do not append any unit.

Item: CC[n+]1ccccc1.F[P-](F)(F)(F)(F)F | solubility (mole fraction): 0.000224

----------
- Cond: in ethanol, 338.15 K
Measured property: solubility (mole fraction)
Reply briefly: the number, and no unit.

Value of measured solubility (mole fraction) for the entry CC[n+]1ccccc1.F[P-](F)(F)(F)(F)F : 0.00308

----------
- Cond: in water, 308.15 K
Measured property: solubility (mole fraction)

So for CC[n+]1ccccc1.F[P-](F)(F)(F)(F)F , the logged solubility (mole fraction) turned out to be 0.00159

----------
- Cond: in ethanol, 343.15 K
Measured property: solubility (mole fraction)
Number only, please.

Just so you know, measured solubility (mole fraction) for CC[n+]1ccccc1.F[P-](F)(F)(F)(F)F came out at 0.00389

----------
- Cond: in water, 303.15 K
Measured property: solubility (mole fraction)
Answer as a number with no unit attached.

For record CC[n+]1ccccc1.F[P-](F)(F)(F)(F)F the listed solubility (mole fraction) is 0.0013
